- PROTOCOL_DETAILS: Solubility in water at 20 degC
- Assay type: physicochemical
solubility reference
Respond with the bare value in µg/mL.

{"COMPOUND": "Cc1cc(C(F)(C(F)(F)F)C(F)(F)F)ccc1NC(=O)c1cccc(I)c1C(=O)NC(C)(C)CS(C)(=O)=O [FLUBENDIAMIDE]", "solubility (µg/mL)": 0.03}

Now for another entry.
Please look at this compound and report its solubility: CNC(=O)c1cc(Cl)cc(C)c1NC(=O)c1cc(Br)nn1-c1ncccc1Cl [CHLORANTRANILIPROLE]
1

====

- PROTOCOL_DETAILS: Activation of Heliothis virescens recombinant ryanodine receptor
EXPERIMENTAL_READOUT: EC50 (nM)
// units = nM; emit number, no label

Please list EC50 recorded for the compound CNC(=O)c1cc(Cl)cc(C)c1NC(=O)c1cc(Br)nn1-c1ncccc1Cl
40

====

- ASSAYED_TARGET: Ryanodine receptor 1 (Mus musculus, UniProt E9PZQ0)
- Sequence (E9PZQ0 whole entry): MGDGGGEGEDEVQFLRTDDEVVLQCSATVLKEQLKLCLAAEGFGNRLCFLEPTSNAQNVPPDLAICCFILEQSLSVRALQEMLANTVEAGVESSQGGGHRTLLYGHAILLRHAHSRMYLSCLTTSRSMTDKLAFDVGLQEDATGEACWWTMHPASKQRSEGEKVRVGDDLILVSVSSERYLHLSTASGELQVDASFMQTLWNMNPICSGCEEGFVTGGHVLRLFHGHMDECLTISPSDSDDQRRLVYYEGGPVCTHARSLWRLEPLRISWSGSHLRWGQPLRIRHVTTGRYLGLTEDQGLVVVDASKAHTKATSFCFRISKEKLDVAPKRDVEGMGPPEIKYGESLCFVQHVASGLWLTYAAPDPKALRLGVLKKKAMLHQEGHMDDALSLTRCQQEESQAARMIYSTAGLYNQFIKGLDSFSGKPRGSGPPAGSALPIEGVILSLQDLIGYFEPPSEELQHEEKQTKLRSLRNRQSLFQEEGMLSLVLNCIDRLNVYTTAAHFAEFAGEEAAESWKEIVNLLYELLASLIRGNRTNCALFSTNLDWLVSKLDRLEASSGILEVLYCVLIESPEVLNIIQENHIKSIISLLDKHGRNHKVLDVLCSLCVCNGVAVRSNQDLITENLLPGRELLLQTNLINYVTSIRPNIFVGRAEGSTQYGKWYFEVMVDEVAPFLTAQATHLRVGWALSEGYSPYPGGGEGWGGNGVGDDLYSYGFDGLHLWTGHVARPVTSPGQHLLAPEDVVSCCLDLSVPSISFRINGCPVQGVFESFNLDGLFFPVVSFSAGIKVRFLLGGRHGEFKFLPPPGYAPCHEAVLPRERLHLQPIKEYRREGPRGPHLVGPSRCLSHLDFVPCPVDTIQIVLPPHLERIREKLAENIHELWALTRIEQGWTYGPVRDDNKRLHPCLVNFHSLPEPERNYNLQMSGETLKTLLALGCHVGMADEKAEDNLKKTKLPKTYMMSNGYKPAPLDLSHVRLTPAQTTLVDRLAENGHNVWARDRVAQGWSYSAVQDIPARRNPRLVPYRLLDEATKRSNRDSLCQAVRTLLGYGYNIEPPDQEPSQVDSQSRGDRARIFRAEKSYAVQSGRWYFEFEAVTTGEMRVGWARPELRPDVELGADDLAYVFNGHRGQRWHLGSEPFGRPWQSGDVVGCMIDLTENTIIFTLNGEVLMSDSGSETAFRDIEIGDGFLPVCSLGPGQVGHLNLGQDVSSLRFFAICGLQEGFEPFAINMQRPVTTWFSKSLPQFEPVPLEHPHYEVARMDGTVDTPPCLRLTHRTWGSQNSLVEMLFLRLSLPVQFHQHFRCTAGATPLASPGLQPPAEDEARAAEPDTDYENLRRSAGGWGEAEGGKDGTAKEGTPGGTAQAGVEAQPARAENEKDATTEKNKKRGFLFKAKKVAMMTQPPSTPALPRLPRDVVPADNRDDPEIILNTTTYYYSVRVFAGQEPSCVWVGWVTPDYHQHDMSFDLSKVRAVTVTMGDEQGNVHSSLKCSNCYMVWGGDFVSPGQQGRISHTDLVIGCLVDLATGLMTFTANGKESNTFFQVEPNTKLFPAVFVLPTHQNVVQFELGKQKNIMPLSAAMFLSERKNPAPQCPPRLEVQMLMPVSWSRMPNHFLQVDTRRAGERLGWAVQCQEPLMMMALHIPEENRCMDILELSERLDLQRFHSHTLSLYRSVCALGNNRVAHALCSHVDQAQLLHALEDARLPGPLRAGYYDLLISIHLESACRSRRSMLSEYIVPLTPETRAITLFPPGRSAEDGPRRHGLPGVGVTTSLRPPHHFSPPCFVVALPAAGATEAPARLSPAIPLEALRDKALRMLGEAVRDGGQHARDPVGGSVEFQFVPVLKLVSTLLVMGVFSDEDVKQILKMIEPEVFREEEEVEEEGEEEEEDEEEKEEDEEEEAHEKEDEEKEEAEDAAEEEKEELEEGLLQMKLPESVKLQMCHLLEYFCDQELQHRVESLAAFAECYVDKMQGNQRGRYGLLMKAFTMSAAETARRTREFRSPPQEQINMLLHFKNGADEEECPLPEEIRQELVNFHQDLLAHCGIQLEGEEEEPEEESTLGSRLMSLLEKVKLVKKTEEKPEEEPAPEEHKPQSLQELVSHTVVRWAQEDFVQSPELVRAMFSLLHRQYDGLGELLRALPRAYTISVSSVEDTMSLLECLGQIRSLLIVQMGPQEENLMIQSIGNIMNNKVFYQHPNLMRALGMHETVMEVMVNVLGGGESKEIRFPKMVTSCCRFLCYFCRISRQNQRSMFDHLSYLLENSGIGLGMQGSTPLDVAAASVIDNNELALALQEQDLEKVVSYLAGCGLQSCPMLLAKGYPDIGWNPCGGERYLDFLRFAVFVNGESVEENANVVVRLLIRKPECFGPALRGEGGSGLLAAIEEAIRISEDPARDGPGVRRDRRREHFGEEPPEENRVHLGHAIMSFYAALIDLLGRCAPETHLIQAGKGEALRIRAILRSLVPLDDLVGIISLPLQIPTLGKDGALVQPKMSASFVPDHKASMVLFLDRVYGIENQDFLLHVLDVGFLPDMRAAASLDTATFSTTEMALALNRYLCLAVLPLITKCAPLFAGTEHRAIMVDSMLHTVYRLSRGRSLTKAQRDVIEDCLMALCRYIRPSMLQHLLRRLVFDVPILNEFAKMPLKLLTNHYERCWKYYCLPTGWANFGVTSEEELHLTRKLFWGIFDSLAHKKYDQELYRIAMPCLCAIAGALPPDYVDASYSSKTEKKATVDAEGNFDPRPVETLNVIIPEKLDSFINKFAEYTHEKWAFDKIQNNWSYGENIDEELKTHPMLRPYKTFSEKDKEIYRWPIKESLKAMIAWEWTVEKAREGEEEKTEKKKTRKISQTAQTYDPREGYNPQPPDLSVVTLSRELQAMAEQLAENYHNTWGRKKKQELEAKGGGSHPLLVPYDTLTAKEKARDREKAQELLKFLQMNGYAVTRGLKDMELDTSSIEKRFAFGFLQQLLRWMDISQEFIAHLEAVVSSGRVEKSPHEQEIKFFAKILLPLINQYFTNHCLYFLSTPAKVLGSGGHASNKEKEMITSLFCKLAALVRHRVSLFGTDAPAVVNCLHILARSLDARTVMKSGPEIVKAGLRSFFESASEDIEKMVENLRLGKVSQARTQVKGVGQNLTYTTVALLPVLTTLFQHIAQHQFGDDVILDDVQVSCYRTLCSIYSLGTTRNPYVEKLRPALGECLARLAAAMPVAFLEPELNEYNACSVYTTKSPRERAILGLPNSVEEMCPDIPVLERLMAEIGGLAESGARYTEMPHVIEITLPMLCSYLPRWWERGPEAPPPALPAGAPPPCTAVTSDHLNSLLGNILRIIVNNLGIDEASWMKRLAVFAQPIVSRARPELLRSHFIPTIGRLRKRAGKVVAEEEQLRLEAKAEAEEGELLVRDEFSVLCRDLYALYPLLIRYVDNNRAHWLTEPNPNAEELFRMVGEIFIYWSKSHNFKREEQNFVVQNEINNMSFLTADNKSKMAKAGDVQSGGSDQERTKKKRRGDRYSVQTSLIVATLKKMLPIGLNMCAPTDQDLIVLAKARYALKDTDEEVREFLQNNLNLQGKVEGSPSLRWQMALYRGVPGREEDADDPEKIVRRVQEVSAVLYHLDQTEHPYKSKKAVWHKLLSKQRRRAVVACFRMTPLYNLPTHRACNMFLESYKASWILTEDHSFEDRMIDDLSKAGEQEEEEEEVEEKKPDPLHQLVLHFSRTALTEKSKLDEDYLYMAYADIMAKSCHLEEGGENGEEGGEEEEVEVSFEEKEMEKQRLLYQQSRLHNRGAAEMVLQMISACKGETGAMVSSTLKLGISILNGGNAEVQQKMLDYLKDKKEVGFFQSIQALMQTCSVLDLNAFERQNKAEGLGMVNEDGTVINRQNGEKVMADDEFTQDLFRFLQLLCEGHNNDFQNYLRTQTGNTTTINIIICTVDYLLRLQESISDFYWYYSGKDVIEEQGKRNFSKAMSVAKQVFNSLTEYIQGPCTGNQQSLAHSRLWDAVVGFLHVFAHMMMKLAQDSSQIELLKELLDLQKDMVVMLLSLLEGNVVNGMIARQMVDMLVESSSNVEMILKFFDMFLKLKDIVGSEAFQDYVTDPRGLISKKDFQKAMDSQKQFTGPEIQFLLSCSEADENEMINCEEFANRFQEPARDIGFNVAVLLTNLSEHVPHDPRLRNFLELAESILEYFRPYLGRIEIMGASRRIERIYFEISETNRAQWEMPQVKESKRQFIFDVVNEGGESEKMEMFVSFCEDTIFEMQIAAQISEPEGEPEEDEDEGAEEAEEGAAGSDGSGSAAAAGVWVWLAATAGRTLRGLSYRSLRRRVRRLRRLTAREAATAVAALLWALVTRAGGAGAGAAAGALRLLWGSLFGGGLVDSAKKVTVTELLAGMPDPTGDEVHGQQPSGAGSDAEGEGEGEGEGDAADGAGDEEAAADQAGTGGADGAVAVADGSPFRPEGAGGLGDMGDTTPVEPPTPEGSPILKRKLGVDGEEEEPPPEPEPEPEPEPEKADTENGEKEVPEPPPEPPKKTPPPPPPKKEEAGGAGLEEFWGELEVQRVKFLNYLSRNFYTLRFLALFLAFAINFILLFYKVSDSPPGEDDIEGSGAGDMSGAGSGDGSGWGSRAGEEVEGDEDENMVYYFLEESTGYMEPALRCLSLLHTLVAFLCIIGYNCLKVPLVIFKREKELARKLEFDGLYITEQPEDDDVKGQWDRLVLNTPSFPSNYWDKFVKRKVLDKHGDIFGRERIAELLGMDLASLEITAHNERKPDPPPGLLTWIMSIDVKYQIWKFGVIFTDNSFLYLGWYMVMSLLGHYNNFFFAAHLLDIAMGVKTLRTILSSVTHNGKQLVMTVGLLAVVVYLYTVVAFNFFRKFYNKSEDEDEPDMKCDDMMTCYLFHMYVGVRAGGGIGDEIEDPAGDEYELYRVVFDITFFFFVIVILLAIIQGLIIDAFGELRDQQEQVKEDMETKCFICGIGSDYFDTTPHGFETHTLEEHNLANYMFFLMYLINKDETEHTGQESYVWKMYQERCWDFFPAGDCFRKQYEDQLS
- PROTOCOL_DETAILS: Activation of ryanodine receptor 1 in mouse C2C12 cells assessed as induction of calcium mobilization
EXPERIMENTAL_READOUT: EC50 (µM)
The reply should be a number in µM, with the unit left off.

Check the records and state EC50 for CNC(=O)c1cc(Cl)cc(C)c1NC(=O)c1cc(Br)nn1-c1ncccc1Cl
14

====

- PROTOCOL_DETAILS: physchem
- CONDITION_SET: octanol/water
- Description: Octanol-water partition coefficient, log P at 24.9 degC
EXPERIMENTAL_READOUT: logP
Give only the figure.

Read off the recorded logP for Cc1cc(C(F)(C(F)(F)F)C(F)(F)F)ccc1NC(=O)c1cccc(I)c1C(=O)NC(C)(C)CS(C)(=O)=O [FLUBENDIAMIDE]
4.2

====

- ASSAYED_TARGET: Ryanodine receptor 2 (Homo sapiens, UniProt Q92736)
- PROTOCOL_DETAILS: Activation of ryanodine receptor in human IMR32 cells assessed as induction of calcium mobilization
pEC50: −log10 of the molar value.
EXPERIMENTAL_READOUT: pEC50

Give the reported value of pEC50 for this record: CNC(=O)c1cc(Cl)cc(C)c1NC(=O)c1cc(Br)nn1-c1ncccc1Cl
< 4.00
